Test system: UACC-62 melanoma
measurementNotes: NCI tumour cell line growth inhibition, 48 h
Entry flag: 1 (yes) if TGI reaches 20 µM; 0 (no) if it does not.

Nc1n[nH]c2cccc(C#Cc3cccc(NC(=O)c4ccc(N5CCOCC5)c(C(F)(F)F)c4)c3)c12	0 (no)
C/C=C(/C)C(=O)O[C@H]1CCN2CC=C(COC(=O)[C@@](O)([C@H](C)OC)C(C)(C)O)[C@H]12	1 (yes)
NNC1=Nc2ccc(Cl)cc2C(=S)N2CSCC12 (stereo not given)	1 (yes)
CCOC(=O)C1=C(C)NC(=O)NC1c1ccc(N(CCCl)CCCl)cc1Cl (stereo not given)	1 (yes)
CCOC(=O)CC[C@H](NC(=O)c1[nH]cnc1/N=N/N(C)C)C(=O)OCC	1 (yes)
CCOC(=O)C1=c2[nH]c3cccc4cccc(c43)n2C(=O)CC1	1 (yes)
C=CC(=O)N1CCN(CCCn2c(=O)c(-c3c(Cl)c(OC)cc(OC)c3Cl)cc3cnc(NC)nc32)CC1	0 (no)
COc1ccc(/C=C2/SC(c3ccc(Cl)cc3)N(NC(=O)CCCCCCCCC(=O)NN3C(=O)/C(=C\c4ccc(OC)c(OC)c4)SC3c3ccc(Cl)cc3)C2=O)cc1OC (stereo not given)	1 (yes)
Clc1cc(OC23CC4CC(CC(C4)C2)C3)nc(Cl)n1	1 (yes)
Clc1ccc2c(N3CCN(c4ccnc(NC5CCCCC5)n4)CC3)ccnc2c1	0 (no)
COC(=O)C(Cc1c[nH]c2ccccc12)NP(=O)(O)OCC1OC(n2ccc(N)nc2=O)C(O)C1O (stereo not given)	1 (yes)
O=C(/C=C/c1ccc(O)c(O)c1)OCCCOC(=O)/C=C/c1ccc(O)c(O)c1	1 (yes)
COc1ccccc1N1C(=O)CSC1c1c[nH]c2ccccc12 (stereo not given)	1 (yes)
O=C1/C(=C/c2ccccc2)CN(C(=O)CCN2CCC(=NO)CC2)C/C1=C\c1ccccc1	0 (no)
O=c1[nH]nc(-c2ccccc2)n1/N=C\CC/C=N\n1c(-c2ccccc2)n[nH]c1=O	1 (yes)

----------
System: SF-539 CNS
measurementNotes: NCI tumour cell line growth inhibition, 48 h
Each entry below carries its reported TGI.
outcomeMeasure: TGI

CCCCCCCCCCc1c2nc(c(CCCCCCCCCC)c3ccc([nH]3)c(CCCCCCCCCC)c3ccc([nH]3)c(CCCCCCCCCC)c3nc1C=C3)C=C2	> 100 µM
Cc1cc2c(c(S(=O)(=O)c3ccc(Cl)cc3[N+](=O)[O-])c1)NCCC2	> 100 µM
O=c1n(-c2ccc(Cl)c(Cl)c2)c(=O)n(-c2ccc(Cl)c(Cl)c2)c(=O)n1-c1ccc(Cl)c(Cl)c1	2.77 µM
Cc1ncc([N+](=O)[O-])n1CCn1ccnc1[N+](=O)[O-]	> 100 µM

----------
Tested on: NCI/ADR-RES ovarian
measurementNotes: NCI tumour cell line growth inhibition, 48 h
outcomeMeasure: TGI

COc1cc(C=C(c2ccc(N(C)C)cc2)c2ccc(N(C)C)cc2)c2ccccc2c1OC	> 100 µM
CC(C)=CCNc1ncnc2c1c(C#N)cn2C1OC(CO)C(O)C1O (stereo not given)	> 100 µM
Clc1cc(OC23CC4CC(CC(C4)C2)C3)nc(Cl)n1	> 100 µM
NC(N)=NS(=O)(=O)c1ccc(NC(=O)c2cccc3c(=O)c4ccccc4[nH]c23)cc1	> 100 µM
O=C1C(=O)c2cc([N+](=O)[O-])ccc2-c2ccc([N+](=O)[O-])cc21	1.03 µM
